tested on: HeLa cells; test: [3H]Adenosine uptake functional cellular assay; format: cell-based; details: Homo sapiens, HeLa, accumulation of [3H]adenosine into HeLa cells; compound range 10 μM to […]; read-out: Adenosine uptake inhibition IC50
pIC50: −log10 of the molar value.
Test Readout: pIC50

Record excerpt, results attached:
COc1cc(C(=O)Nc2cc(C(F)(F)F)n(C)n2)ccc1-c1nc([C@@H]2CC[C@H]3CCC(=O)N3C2)n2ccnc(N)c12 [Example 188]: 5.43
C=C[C@@H]1OC(=O)N2C[C@H](c3nc(-c4ccc(C(=O)Nc5cc(C(F)(F)F)ccn5)cc4)c4c(N)nccn34)CC[C@@H]12 [Example 109]: 6.94
CC(C)N1CC(=O)N2C[C@H](c3nc(-c4ccc(C(=O)Nc5cc(C(F)(F)F)ccn5)cc4)c4c(N)nccn34)CC[C@H]2C1 [Example 81]: 7.16
Nc1ncc(Cl)n2c([C@@H]3CC[C@H]4CCC(=O)N4C3)nc(-c3ccc(C(=O)Nc4cc(C5CC5)ccn4)cc3OC3CC3)c12 [Example 147]: 6.02
CC1(C)OC(=O)N2C[C@H](c3nc(-c4ccc(C(=O)Nc5cc(C(F)(F)F)ccn5)cc4)c4c(N)nccn34)CC[C@H]21 [Example 52]: 7.30
Nc1nccn2c([C@H]3CN4C(=O)OC[C@H]4CO3)nc(-c3ccc(C(=O)Nc4cc(C(F)(F)F)ccn4)cc3)c12 [Example 76]: 6.17
CCOc1cc(C(=O)Nc2cc(C3CC3)ccn2)c(F)cc1-c1nc([C@@H]2CC[C@H]3CCC(=O)N3C2)n2ccnc(N)c12 [Example 137]: 5.92
CCOc1cc(C(=O)Nc2cc(C(F)(F)F)ccn2)ccc1-c1nc([C@@H]2CC[C@H]3CCC(=O)N3C2)n2c(F)cnc(N)c12 [Example 161]: 5.81

I. Nc1nccn2c([C@@H]3CC[C@H]4CCC(=O)N4C3)nc(-c3ccc(C(=O)Nc4cc(C(F)(F)F)ccn4)nc3)c12 [Example 119]
II. CC1CC(=O)N2C[C@H](c3nc(-c4ccc(C(=O)Nc5cc(C(F)(F)F)ccn5)cc4)c4c(N)nccn34)CC[C@H]12 (stereo in doubt) [Example 63]
### Prompt # min-compare on pIC50 between I and II Choose, then provide that item's label.
### Response I

---

molecular target: BTK enzyme (recombinant full-length BTK, hBTK) (Homo sapiens, UniProt Q06187); construct: recombinant protein from baculovirus-transfected Sf9 cells: full-length BTK, 6HIS-tag cleaved; 6HIS (cleaved yes); made in house; host or cells: baculovirus-transfected Sf9 cells; assay: BTK enzyme activity assay, LANCE TR-FRET; assay type: biochemical; conditions: 50 pM hBTK, 2 μM biotin-A5-peptide, 25 μM ATP; 60 min compound & enzyme incubation; read-out: IC50 BTK activity value
Sequence (Q06187 whole entry): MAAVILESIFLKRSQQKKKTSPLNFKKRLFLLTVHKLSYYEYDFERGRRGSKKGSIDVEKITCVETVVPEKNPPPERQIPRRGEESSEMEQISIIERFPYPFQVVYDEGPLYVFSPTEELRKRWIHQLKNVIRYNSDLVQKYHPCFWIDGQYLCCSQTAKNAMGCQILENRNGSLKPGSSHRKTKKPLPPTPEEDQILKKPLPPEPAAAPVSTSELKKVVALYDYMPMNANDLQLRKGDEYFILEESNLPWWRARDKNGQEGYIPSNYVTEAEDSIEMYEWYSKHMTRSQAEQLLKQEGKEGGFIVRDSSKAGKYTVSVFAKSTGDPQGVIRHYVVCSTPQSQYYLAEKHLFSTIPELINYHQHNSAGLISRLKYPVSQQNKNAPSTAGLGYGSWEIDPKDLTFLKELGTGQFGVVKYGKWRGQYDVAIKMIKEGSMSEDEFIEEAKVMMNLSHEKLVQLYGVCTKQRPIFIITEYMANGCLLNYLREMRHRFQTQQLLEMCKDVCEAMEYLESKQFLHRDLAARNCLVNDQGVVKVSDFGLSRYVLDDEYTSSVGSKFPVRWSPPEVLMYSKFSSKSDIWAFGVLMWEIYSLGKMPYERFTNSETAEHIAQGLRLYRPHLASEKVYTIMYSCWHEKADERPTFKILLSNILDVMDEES
pIC50: −log10 of the molar value.
Test Readout: pIC50

Record excerpt, results attached:
COC(=O)c1ccnc(NC(=O)c2ccc(-c3nc([C@@H]4CC[C@H]5CCC(=O)N5C4)n4ccnc(N)c34)cc2)c1 [Example 103]: 9.40
CC1CC(=O)N2C[C@H](c3nc(-c4ccc(C(=O)Nc5cc(C(F)(F)F)ccn5)cc4)c4c(N)nccn34)CC[C@H]12 (stereo in doubt) [Example 63]: 10.24
CC(F)(F)c1cc(C(=O)Nc2cc(C(F)(F)F)ccn2)ccc1-c1nc([C@@H]2CC[C@H]3CCC(=O)N3C2)n2ccnc(N)c12 [Example 114]: 6.08
Cc1cc(C(=O)Nc2cc(C(F)(F)F)ccn2)c(F)cc1-c1nc([C@@H]2CC[C@H]3CCC(=O)N3C2)n2c(Cl)cnc(N)c12 [Example 197]: 8.11
CC(C)(O)c1ccnc(NC(=O)c2ccc(-c3nc([C@@H]4CC[C@H]5CCC(=O)N5C4)n4ccnc(N)c34)cc2)c1 [Example 98]: 7.31
Nc1ncc(F)n2c([C@@H]3CC[C@H]4CCC(=O)N4C3)nc(-c3ccc(C(=O)Nc4cc(C5CC5)ccn4)cc3)c12 [Example 168]: 8.82

1. CCOc1cc(C(=O)Nc2cc(C(F)(F)F)n(C)n2)ccc1-c1nc([C@@H]2CC[C@H]3CCC(=O)N3C2)n2ccnc(N)c12 [Example 131]
2. Nc1nccn2c([C@@H]3CC[C@H]4CCC(=O)N4C3)nc(-c3ccc(C(=O)Nc4cc(C(F)F)ccn4)cc3F)c12 [Example 14]
### Prompt Which is greater in pIC50, the first item 1 or the second item 2 ? Choose, then provide that item's label.
### Response 2
(2: 9.92, 1: 9.13)

1. Nc1nccn2c([C@@H]3CC[C@@H]4CCC(=O)N4C3)nc(-c3ccc(C(=O)Nc4cc(C(F)(F)F)ccn4)cc3)c12 [Example 11]
2. Cc1cnc(NC(=O)c2ccc(-c3nc([C@@H]4CC[C@H]5CCC(=O)N5C4)n4ccnc(N)c34)c(Cl)c2)s1 [Example 195]
### Prompt Which is greater in pIC50, the first item 1 or the second item 2 ? Choose, then provide that item's label.
### Response 2
(2: 9.20, 1: 7.82)
